Documented IC50 across a set of binders
target: T1, soluble human FcRn (human, UniProt P55899 24-297; P61769 21-119, biotinylated (Sulfo-NHS-LC-Biotin) in the ELISA; amine-coupled to CM5 chip in SPR)
T1 construct: also called shFcRn; biotinylated shFcRn
T1 sequence (P55899 24-297 limits assumed, chain 1 of 2): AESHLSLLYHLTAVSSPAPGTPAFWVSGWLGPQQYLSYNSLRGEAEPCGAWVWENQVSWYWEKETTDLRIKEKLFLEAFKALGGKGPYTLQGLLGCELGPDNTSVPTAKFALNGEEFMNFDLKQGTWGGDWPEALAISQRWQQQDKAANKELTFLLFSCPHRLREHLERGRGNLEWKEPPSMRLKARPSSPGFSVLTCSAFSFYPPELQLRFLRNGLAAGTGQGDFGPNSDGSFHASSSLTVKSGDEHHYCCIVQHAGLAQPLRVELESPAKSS
T1 sequence (P61769 21-119 limits assumed, chain 2 of 2): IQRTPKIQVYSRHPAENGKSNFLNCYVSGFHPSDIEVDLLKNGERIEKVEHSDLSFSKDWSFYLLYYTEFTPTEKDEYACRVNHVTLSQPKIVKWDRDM
method: ELISA, competitor human IgG
Square brackets hold non-standard residues; d marks the D form. Ends that are not written are not given here. NMeL = CN[C@@H](CC(C)C)C(=O)O; Sar = CNCC(=O)O

# binder, units, IC50
measured = [
    ("QRFVTGHFG[dP]FYPANGP-NH2 (N-terminus assumed; SMILES CC(C)[C@H](NC(=O)[C@H](Cc1ccccc1)NC(=O)[C@H](CCCNC(=N)N)NC(=O)[C@@H](N)CCC(N)=O)C(=O)N[C@H](C(=O)NCC(=O)N[C@@H](Cc1c[nH]cn1)C(=O)N[C@@H](Cc1ccccc1)C(=O)NCC(=O)N1CCC[C@@H]1C(=O)N[C@@H](Cc1ccccc1)C(=O)N[C@@H](Cc1ccc(O)cc1)C(=O)N1CCC[C@H]1C(=O)N[C@@H](C)C(=O)N[C@@H](CC(N)=O)C(=O)NCC(=O)N1CCC[C@H]1C(N)=O)[C@@H](C)O) [Peptide No. 175]", "µM", 200),
    ("QRFVTGHFG[dP]LYPLNGP-NH2 (N-terminus assumed; SMILES CC(C)C[C@H](NC(=O)[C@H]1CCCN1C(=O)CNC(=O)[C@H](Cc1ccccc1)NC(=O)[C@H](Cc1c[nH]cn1)NC(=O)CNC(=O)[C@@H](NC(=O)[C@@H](NC(=O)[C@H](Cc1ccccc1)NC(=O)[C@H](CCCNC(=N)N)NC(=O)[C@@H](N)CCC(N)=O)C(C)C)[C@@H](C)O)C(=O)N[C@@H](Cc1ccc(O)cc1)C(=O)N1CCC[C@H]1C(=O)N[C@@H](CC(C)C)C(=O)N[C@@H](CC(N)=O)C(=O)NCC(=O)N1CCC[C@H]1C(N)=O) [Peptide No. 168]", "µM", 100),
    ("QRFVTGHFG[dP]IYPANGP-NH2 (N-terminus assumed; SMILES CC[C@H](C)[C@H](NC(=O)[C@H]1CCCN1C(=O)CNC(=O)[C@H](Cc1ccccc1)NC(=O)[C@H](Cc1c[nH]cn1)NC(=O)CNC(=O)[C@@H](NC(=O)[C@@H](NC(=O)[C@H](Cc1ccccc1)NC(=O)[C@H](CCCNC(=N)N)NC(=O)[C@@H](N)CCC(N)=O)C(C)C)[C@@H](C)O)C(=O)N[C@@H](Cc1ccc(O)cc1)C(=O)N1CCC[C@H]1C(=O)N[C@@H](C)C(=O)N[C@@H](CC(N)=O)C(=O)NCC(=O)N1CCC[C@H]1C(N)=O) [Peptide No. 174]", "µM", 94),
    ("FVTGHFG[dP]WYPA-NH2 (N-terminus assumed; SMILES CC(C)[C@H](NC(=O)[C@@H](N)Cc1ccccc1)C(=O)N[C@H](C(=O)NCC(=O)N[C@@H](Cc1c[nH]cn1)C(=O)N[C@@H](Cc1ccccc1)C(=O)NCC(=O)N1CCC[C@@H]1C(=O)N[C@@H](Cc1c[nH]c2ccccc12)C(=O)N[C@@H](Cc1ccc(O)cc1)C(=O)N1CCC[C@H]1C(=O)N[C@@H](C)C(N)=O)[C@@H](C)O) [Peptide No. 211]", "µM", 100),
    ("RFVTGHFG[Sar][NMeL]YPA-NH2 (N-terminus assumed; SMILES CC(C)C[C@@H](C(=O)N[C@@H](Cc1ccc(O)cc1)C(=O)N1CCC[C@H]1C(=O)N[C@@H](C)C(N)=O)N(C)C(=O)CN(C)C(=O)CNC(=O)[C@H](Cc1ccccc1)NC(=O)[C@H](Cc1c[nH]cn1)NC(=O)CNC(=O)[C@@H](NC(=O)[C@@H](NC(=O)[C@H](Cc1ccccc1)NC(=O)[C@@H](N)CCCNC(=N)N)C(C)C)[C@@H](C)O) [Peptide No. 236]", "µM", 37),
    ("QRFVTGHFG[dP]WYPINGP-NH2 (N-terminus assumed; SMILES CC[C@H](C)[C@H](NC(=O)[C@@H]1CCCN1C(=O)[C@H](Cc1ccc(O)cc1)NC(=O)[C@H](Cc1c[nH]c2ccccc12)NC(=O)[C@H]1CCCN1C(=O)CNC(=O)[C@H](Cc1ccccc1)NC(=O)[C@H](Cc1c[nH]cn1)NC(=O)CNC(=O)[C@@H](NC(=O)[C@@H](NC(=O)[C@H](Cc1ccccc1)NC(=O)[C@H](CCCNC(=N)N)NC(=O)[C@@H](N)CCC(N)=O)C(C)C)[C@@H](C)O)C(=O)N[C@@H](CC(N)=O)C(=O)NCC(=O)N1CCC[C@H]1C(N)=O) [Peptide No. 190]", "µM", 49),
    ("QRFVTGHFG[dP]LYPANGP-NH2 (N-terminus assumed; SMILES CC(C)C[C@H](NC(=O)[C@H]1CCCN1C(=O)CNC(=O)[C@H](Cc1ccccc1)NC(=O)[C@H](Cc1c[nH]cn1)NC(=O)CNC(=O)[C@@H](NC(=O)[C@@H](NC(=O)[C@H](Cc1ccccc1)NC(=O)[C@H](CCCNC(=N)N)NC(=O)[C@@H](N)CCC(N)=O)C(C)C)[C@@H](C)O)C(=O)N[C@@H](Cc1ccc(O)cc1)C(=O)N1CCC[C@H]1C(=O)N[C@@H](C)C(=O)N[C@@H](CC(N)=O)C(=O)NCC(=O)N1CCC[C@H]1C(N)=O) [Peptide No. 157]", "µM", 195),
    ("RFVTGHFG[dP]WYPA-NH2 (N-terminus assumed; SMILES CC(C)[C@H](NC(=O)[C@H](Cc1ccccc1)NC(=O)[C@@H](N)CCCNC(=N)N)C(=O)N[C@H](C(=O)NCC(=O)N[C@@H](Cc1c[nH]cn1)C(=O)N[C@@H](Cc1ccccc1)C(=O)NCC(=O)N1CCC[C@@H]1C(=O)N[C@@H](Cc1c[nH]c2ccccc12)C(=O)N[C@@H](Cc1ccc(O)cc1)C(=O)N1CCC[C@H]1C(=O)N[C@@H](C)C(N)=O)[C@@H](C)O) [Peptide No. 246]", "µM", 60),
    ("QRFVTGHFG[dP]LYPVANGP-NH2 (N-terminus assumed; SMILES CC(C)C[C@H](NC(=O)[C@H]1CCCN1C(=O)CNC(=O)[C@H](Cc1ccccc1)NC(=O)[C@H](Cc1c[nH]cn1)NC(=O)CNC(=O)[C@@H](NC(=O)[C@@H](NC(=O)[C@H](Cc1ccccc1)NC(=O)[C@H](CCCNC(=N)N)NC(=O)[C@@H](N)CCC(N)=O)C(C)C)[C@@H](C)O)C(=O)N[C@@H](Cc1ccc(O)cc1)C(=O)N1CCC[C@H]1C(=O)N[C@H](C(=O)N[C@@H](C)C(=O)N[C@@H](CC(N)=O)C(=O)NCC(=O)N1CCC[C@H]1C(N)=O)C(C)C, printed with -VA- before NGP) [Peptide No. 167]", "µM", 93),
]

Sourced from patent US20070254831A1
